- System: PBMC
- protocol-text: Cytotoxicity against human PBMC at IC50 concentration after 48 hrs by MTT assay
- Assay type: cell-based
Please mark yes if the recorded Activity is equal to or greater than 4%, and no if it falls below.

compound | group
COC(=O)C(NC(=O)/C=C/C=C/c1ccc2c(c1)OCO2)C(C)C (configuration not stated) | no
COC(=O)C(CCSC)NC(=O)CCCCc1ccc2c(c1)OCO2 (configuration not stated) | no
COC(=O)C(Cc1ccc(O)cc1)NC(=O)CCCCc1ccc2c(c1)OCO2 (configuration not stated) | yes
COC(=O)C(Cc1ccc(O)cc1)NC(=O)/C=C/C=C/c1ccc2c(c1)OCO2 (configuration not stated) | no
COC(=O)[C@@H](N)CCSC | no
O=C(/C=C/C=C/c1ccc2c(c1)OCO2)NC(Cc1ccccc1)C(=O)O (configuration not stated) | no
COC(=O)[C@@H](N)Cc1ccc(O)cc1 | no
COC(=O)C(Cc1c[nH]c2ccccc12)NC(=O)/C=C/C=C/c1ccc2c(c1)OCO2 (configuration not stated) | no
CC(C)C(NC(=O)/C=C/C=C/c1ccc2c(c1)OCO2)C(=O)O (configuration not stated) | yes
COC(=O)C(Cc1c[nH]c2ccccc12)NC(=O)CCCCc1ccc2c(c1)OCO2 (configuration not stated) | no
